# Test system: GSK3A
# particulars: concentration: 1 μM, replicates: in singlicate; n = 1;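 note: KINOMEscan kinase panel screen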
endpoint-name: %Inh (%)
One number for each entry, in %.

State recorded %Inh for all listed compounds.
1. Nc1nccc(-c2c(-c3ccc(F)cc3)ncn2C2CCN(CC(F)(F)F)CC2)n1
2. Cn1ccc2ncnc(Oc3ccc(NC(=O)Nc4ccncc4)c(Cl)c3)c21

-- reply
1. 0
2. 29

Dear colleague, could you send me %Inh for each of the items below? Thanks.
1. Fc1ccc(-c2ncn(CCCN3CCOCC3)c2-c2ccccn2)cc1
2. CN1c2ccc(CNc3ccc(F)cc3)cc2-c2c(cnn2C)S1(=O)=O
3. CC(C)Oc1ccc2c(-c3ccnc(Nc4ccc(N5CCN(C)CC5)cc4)n3)cnn2n1
4. O=C(c1ccc(-c2cc(-c3c[nH]nc3-c3ccccn3)ccn2)cc1)N1CCOCC1
5. O=C(NCCNc1ccnc(Nc2ccc(F)cc2)n1)Nc1ccccc1F
6. CCn1cnc2c(N)ncnc21
7. O=C(NCCNc1ccnc(Nc2ccc(F)cc2)n1)c1cc2ccccc2s1

-- reply
[0, 22, 0, 8, 2, 6, 0]

Provide the reported %Inh of each entry below, same order.
1. Cc1cccc(Cn2ccn3c(=O)cc(N4CCOCC4)nc23)c1
2. CC(C)(C)n1cnc2c(N)ncnc21
3. CSc1ccc(-c2cc3ncnc(SCC(=O)O)c3s2)cc1
4. Cc1c(Cn2c(C)nn3c(=O)cc(N4CCOC(C)C4)nc23)cccc1C(F)(F)F (centres unmarked)
5. COc1ccc(Nc2nccc(N3CCC(NC(=O)Nc4cccc(C(C)=O)c4)C3)n2)cc1 (centres unmarked)
6. Cc1cn2c(=O)cc(N3CCOCC3)nc2n1Cc1cccc(Cl)c1Cl
7. c1ccc(-c2cc(-c3c[nH]nc3-c3ccccn3)ccn2)cc1
8. CN(C(=O)c1ccc(-c2cc(-c3c[nH]nc3-c3ccccn3)ccn2)cc1)C1CCOCC1

-- reply
10
0
0
0
22
11
11
0

----------
I'd appreciate it if you could supply %Inh values for the items below.
# System: SNARK
# Construct: gene NUAK2
# particulars: concentration: 1 μM, replicates: in singlicate; n = 1
Give bare numbers, in %.

Consider the worked cases shown below.
-- ask Which value of %Inh has been reported for "CSc1ccc(-c2cc3ncnc(SCC(=O)O)c3s2)cc1" in the records?
-- reply 0

-- ask I'd like to know its %Inh. The compound in question is COc1ccc(Nc2ncc(C#N)c(Nc3ccccc3C(N)=O)n2)cc1N1CCN(C)CC1.Cl [GSK1558669]
-- reply 99.8

-- ask // %Inh lookup, key: "Cc1ccc(C(=O)NCC(N)=O)cc1-n1c(C)cc(OCc2ccc(F)cc2F)c(Br)c1=O"
-- reply 0

-- ask Form field: reported %Inh of "COc1cc2c(cc1OC[C@@H](O)CO)ncc1c3ccc(C#N)cc3[nH]c21"
-- reply 89

***
-- ask # query: %Inh of entry C[C@@H](Oc1cc(-n2cnc3ccc(NC(=O)NC(C)(C)C)cc32)sc1C(N)=O)c1ccccc1Cl [GSK346294]
-- reply 21

----------
# System: CDK9
# particulars: concentration: 1 μM, replicates: in singlicate; n = 1
Assignment: determine reported %Inh for the given molecules.
Numbers only, in %.

Solved cases (5 shown):
-- ask Give recorded %Inh with CDK9 for the following molecule: Nc1nc(-c2ccc3c(N)n[nH]c3c2)cc(N2CCCC2)n1 [GSK2227430]
-- reply 0

-- ask Query the reported %Inh for CDK9; item: Cc1cn2c(=O)cc(N3CCOCC3)nc2n1Cc1cccc(Cl)c1Cl [GSK2334006]
-- reply 0

-- ask CDK9 / %Inh / CC(C)(C)n1cnc2c(N)ncnc21 [SKF-97359] : value?
-- reply 0

-- ask Give recorded %Inh with CDK9 for the following molecule: "COc1cc2c(cc1OC[C@@H](O)CO)ncc1c3ccc(C#N)cc3[nH]c21"
-- reply 0

-- ask Identify the measured %Inh of Cc1cccc(Cn2ccn3c(=O)cc(N4CCOCC4)nc23)c1 [GSK2297542] for CDK9.
-- reply 0

For every record below, what is its %Inh?
1. Fc1ccc(-c2ncn(CCCN3CCOCC3)c2-c2cccnc2)cc1 [SB-211743]
2. O=C(c1ccc(-c2cc(-c3c[nH]nc3-c3ccccn3)ccn2)cc1)N1CCOCC1 [GW812171]
3. O=C(NCCCN1CCOCC1)c1cccc(Nc2nccc(Nc3ccc(Oc4ccccc4)cc3)n2)c1 [GW663929]
4. CSc1ccc(-c2cc3ncnc(SCC(=O)O)c3s2)cc1
5. NS(=O)(=O)CCc1cccc(Nc2nccc(-c3c(-c4cccc(NC(=O)c5c(F)cccc5F)c4)nn4ccccc34)n2)c1 [GSK336735]
6. NS(=O)(=O)c1cccc(-c2ccc3ncc(N4CCOCC4)nc3c2)c1 [GSK1535721]
7. Fc1ccc(-c2nn3c(OCC(F)(F)F)cccc3c2-c2ccncc2)cc1 [GW514784]
8. c1ccc(-c2cc(-c3c[nH]nc3-c3ccccn3)ccn2)cc1 [GW576604]

-- reply
0
0
19
33
0
3
0
0
